- assayed.target: TNFα converting enzyme (membrane preparation from MonoMac 6 cells) (Homo sapiens, UniProt P78536)
- Construct: Membrane preparation from MonoMac 6 cells; endogenous in cells; host or cells: MonoMac 6 cells (membrane preparation, subfractionated extract)
- Sequence (P78536 215-824): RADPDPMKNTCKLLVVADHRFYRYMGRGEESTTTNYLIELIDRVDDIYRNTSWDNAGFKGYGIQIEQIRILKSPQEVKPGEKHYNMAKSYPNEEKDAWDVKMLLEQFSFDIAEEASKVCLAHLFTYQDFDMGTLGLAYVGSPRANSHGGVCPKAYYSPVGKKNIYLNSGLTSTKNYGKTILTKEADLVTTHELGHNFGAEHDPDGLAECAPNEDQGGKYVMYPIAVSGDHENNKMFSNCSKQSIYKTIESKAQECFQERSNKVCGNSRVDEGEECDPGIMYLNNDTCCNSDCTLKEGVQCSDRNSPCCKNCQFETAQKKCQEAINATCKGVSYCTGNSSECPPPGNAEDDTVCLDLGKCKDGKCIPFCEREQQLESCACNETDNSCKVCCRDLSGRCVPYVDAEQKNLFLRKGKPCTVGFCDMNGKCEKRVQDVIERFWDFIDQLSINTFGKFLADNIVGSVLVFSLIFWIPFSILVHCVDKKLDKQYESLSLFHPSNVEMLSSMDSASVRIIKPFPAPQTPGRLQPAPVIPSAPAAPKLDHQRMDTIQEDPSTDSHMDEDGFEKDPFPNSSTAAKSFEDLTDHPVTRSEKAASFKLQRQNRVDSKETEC
- experiment.description: TNFα Converting Enzyme Inhibition
- Format: biochemical
measurement.name: Ki

- CNC(=O)[C@@H](NC(=O)[C@H](CCCc1ccccc1)[C@H](C)N(O)C=O)C(C)(C)C [Example 1]: 50 to 500 nM

====

Entries and their measured pKi follow.
- assayed.target: 20 kD truncated collagenase-3 (MMP-13)
- experiment.description: Matrix Metalloprotease Inhibition, Collagenase-3
- assay.setup: 30 pM enzyme, 10 μM fluorogenic substrate, pH=7.6; approximate IC50 equivalent to Ki ([S]<<Km)
pKi: −log10 of the molar value.
measurement.name: pKi

* CNC(=O)[C@@H](NC(=O)[C@H](CCCc1cccs1)[C@H](C)N(O)C=O)C(C)(C)C | 9.30 to 12.00
* CNC(=O)[C@@H](NC(=O)[C@H](CCCc1ccccc1)[C@H](C)N(O)C=O)C(C)(C)C | 8.30 to 9.30
* C[C@@H]([C@@H](CCCc1ccc(Cl)cc1)C(=O)N[C@H](C(=O)NCCCN1CCOCC1)C(C)(C)C)N(O)C=O | 9.30 to 12.00
* C[C@@H]([C@@H](CCCc1ccc(Cl)cc1)C(=O)N[C@H](C(=O)NCc1ccccn1)C(C)(C)C)N(O)C=O | 9.30 to 12.00
* CNC(=O)[C@@H](NC(=O)[C@H](CCCCCc1ccccc1)[C@H](C)N(O)C=O)C(C)(C)C | 8.30 to 9.30
* CNC(=O)[C@@H](NC(=O)[C@H](CCCc1ccc(C)cc1)[C@H](C)N(O)C=O)C(C)(C)C | 8.30 to 9.30
* CNC(=O)[C@@H](NC(=O)[C@H](CCCc1ccc(Cl)cc1)[C@H](C)N(O)C=O)C(C)(C)C | 9.30 to 12.00
* CC(C)[C@@H]([C@@H](CCCc1ccc(Cl)cc1)C(=O)N[C@H](C(=O)NCc1cccnc1)C(C)(C)C)N(O)C=O | 9.30 to 12.00

====

- Test system: TNFα release from LPS/PMA-stimulated MonoMac 6 cells
- experiment.description: Cell-Based TNFα Release Inhibition
- assay.setup: Homo sapiens, MONO-MAC-6, LPS/PMA stimulation, 2 hours, 37° C.
measurement.name: IC50

* CNC(=O)[C@@H](NC(=O)[C@H](CCCc1ccccc1)[C@H](C)N(O)C=O)C(C)(C)C | > 500 nM
